Each recorded value in this set is attributed to the supplement of paper PMC12042874.

assay: amyloid nucleation score (Sup35N fusion, yeast selection) (log enrichment); library NNK1; higher = more nucleation; inactive = no reads after selection;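 also: zero at mode of non-aggregating sequences after 7 days selection at 30°C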
Param threshold (-0.2) applies to amyloid nucleation score; output true when value >= threshold, false when value < threshold.

Substance | Label
MDVGIFMIMTVTRWKGCSVI | true
GAILENYALFESRTYFMLHC | true
FLKSYLLRC | true
GIGLGFQ | false
VSGESDSYRVGFSEACLRKL | false

Is amyloid nucleation score at least -0.2? Consider RRWFYLGAFVYKSNTIDVGV
false

Is amyloid nucleation score at least -0.2? Consider MSLYTDNWGNKGRTSLNYSS
true

Is amyloid nucleation score at least -0.2? Consider SSSGMVDSVSYDLRGRVGLR
true

---

Give amyloid nucleation score for every item shown.
assay: amyloid nucleation score (Sup35N fusion, yeast selection) (log enrichment); library NNK1; higher = more nucleation; inactive = no reads after selection
Give bare numbers.

State recorded amyloid nucleation score for all listed substances.
1. KITWDLF
2. HWSSSVSVNGVRYTFMSTSR
3. LKDCSCVERQD
4. PGEVRW
5. FGINVVRGKCRVRSLKDIDS

[0.759, -2.08, -0.072, -0.385, -0.086]

---

assay: amyloid nucleation score (Sup35N fusion, yeast selection) (log enrichment); library NNK3; higher = more nucleation; inactive = no reads after selection
Metric name: amyloid nucleation score

Would you please look over these solved cases?
Substance | amyloid nucleation score
IVLSNVRVGIACGDLC | 0.182
FNHSRYDSVFWFVVHPSYEG | inactive
RKLSNIYFVIGDGMWGSHGW | 2.32
ILYGKVTKKRGSKALSVRVM | inactive
WHTDWRW | inactive

State recorded amyloid nucleation score for all listed substances.
1. SVGRSST
2. NNYSRVLSSIIEGIVIR
3. FILSVWLYTS
4. IVVFLDLFRDTFGLGLPTKG

["inactive", "inactive", "inactive", "inactive"]

---

assay: amyloid nucleation score (Sup35N fusion, yeast selection) (log enrichment); library NNK3; higher = more nucleation; inactive = no reads after selection
Metric name: amyloid nucleation score

Would you please look over these solved cases?
Substance | Measured
RFATGCDYLLRRW | inactive
SLFFSYV | inactive
IVGIKVDIYNTSGCS | 1.7
HRPGFAGGHLWTVFKYVR | inactive
CYFRVAHVLDSRILSRPGML | inactive
HGLRALLRSLSLYLVLCFTV | inactive
NCMTLCLIDIRYSFENFFSF | 2.18
SVYLGFIVGSVHPTHVISMR | inactive

State recorded amyloid nucleation score for all listed substances.
1. HGSAWHSISEVVTIIRACGF
2. GQRNVVSYTSNMNVPLFSFG
3. VRAGSLYHCVRNPISRGLAV
4. VAVLVNALSLPEVGKGVVRR
5. RGQGKHNSRYFCLIT

inactive
inactive
-0.57
1.84
inactive

State recorded amyloid nucleation score for all listed substances.
1. YFFVHEKCQVGGRGGKLAKK
2. NFQTNGTLKHNN

inactive
inactive

State recorded amyloid nucleation score for all listed substances.
1. SMCNTSLYWLDHGADLLRSL
2. WNIFSYNNSLVWNPEGNESG
3. PDAVTILGGVYHVVQSWG
4. VVISYQTSMTNHGCLSFYQW
5. NGEKLFSEDVVSYWVDVYSR
6. GYDLFCGILMVDNSASIHTP
7. GSLGAMKNQTTASQGAEGAL
8. HIYIVKSVCILCIWPCGLTE

["inactive", 0.836, "inactive", 2.13, "inactive", 2.84, "inactive", 2.86]
